# Tested on: MDA-MB-435
# Experimental protocol: NCI tumour cell line growth inhibition, 48 h
Calls of active or inactive are those of the source. Cut-off read from the data, not from the text of the source: active = GI50 up to about 1.1 µM and inactive = higher.
Endpoint name: GI50

Compound	Assay system	GI50
O=C(CCC1OCCO1)Nc1cc(NCc2ccccc2)ccc1OCc1ccccc1	MDA-MB-435	23.6 µM (inactive)
CC(=O)OCC1OC(O[C@@H]2C[C@H]3C(C)(C)[C@@H](OC(C)=O)CC[C@]3(C)[C@H]3CC[C@]45C[C@]4(CC[C@H]5[C@@H](C)C[C@@H](O)[C@H](O)C(C)(C)F)[C@@]32C)C(O)C(O)C1O (some centres not stated)	MDA-MB-435	8.04 µM (inactive)
Brc1ccc(/N=N/c2ccc3ccccc3n2)cc1	MDA-MB-435	64.3 µM (inactive)
CCCC(=O)Oc1cc(OC(=O)CCC)c2c(C)cc(=O)oc2c1	MDA-MB-435	58.6 µM (inactive)
O=C(Cn1c(=O)oc2ccc(C(=O)c3ccccc3Cl)cc21)c1ccc([N+](=O)[O-])cc1	MDA-MB-435	17.7 µM (inactive)
c1ccc2c(c1)ccc1nc3ccccn3c12	MDA-MB-435	> 100 µM (inactive)

Give recorded GI50. `CC(C)(C)c1cc(S(=O)(=O)O)c2oc(-c3ccccc3)cc(=O)c2c1`
> 100 µM (inactive)

Cited source: ChEMBL document CHEMBL1201862
